Hello, the source for this data is patent US20250011363A1, in case you need it.

# measuredOn: acetylcholine receptor (Homo sapiens, UniProt P02708)
# Sequence (P02708 21-457): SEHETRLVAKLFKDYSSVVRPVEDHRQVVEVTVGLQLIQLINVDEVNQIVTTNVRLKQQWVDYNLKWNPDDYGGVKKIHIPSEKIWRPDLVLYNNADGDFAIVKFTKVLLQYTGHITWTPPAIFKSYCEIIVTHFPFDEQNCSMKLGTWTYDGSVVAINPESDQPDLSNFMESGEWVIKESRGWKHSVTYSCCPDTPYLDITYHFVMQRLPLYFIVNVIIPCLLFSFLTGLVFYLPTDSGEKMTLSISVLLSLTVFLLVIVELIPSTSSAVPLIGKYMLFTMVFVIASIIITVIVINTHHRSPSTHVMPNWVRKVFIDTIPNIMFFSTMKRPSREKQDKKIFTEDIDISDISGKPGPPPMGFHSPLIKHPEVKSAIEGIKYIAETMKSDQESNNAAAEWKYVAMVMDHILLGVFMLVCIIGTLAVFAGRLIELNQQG
# procedureDetails: SPR binding affinity (RU) of optimized 5mer/6mer/7mer peptides, Examples 6-7
# conditionContext: SPR; XRRQRR-6mer and RRQRRX-6mer
Can you tell me Binding affinity, relative value to the RRQRR sequence for the items I'm about to list?
Numbers only.

Recorded Binding affinity, relative value to the RRQRR sequence, per entry:
// query Binding affinity, relative value to the RRQRR sequence value for entry 3607 (IRRQRR) [compound 3607]
121

Now the same for 3630 (RRQRRF) [compound 3630]
132

Now the same for 3626 (RRQRRL) [compound 3626]
141

Now the same for 3601 (GRRQRR) [compound 3601]
132

Now the same for 3616 (KRRQRR) [compound 3616]
173

Below are 4 substances. Give each one its Binding affinity, relative value to the RRQRR sequence.
1. 3604 (CRRQRR) [compound 3604]
2. 3632 (RRQRRT) [compound 3632]
3. 3629 (RRQRRW) [compound 3629]
4. 3610 (FRRQRR) [compound 3610]

123
117
129
143

Below are 2 substances. Give each one its Binding affinity, relative value to the RRQRR sequence.
1. 3615 (QRRQRR) [compound 3615]
2. 3613 (YRRQRR) [compound 3613]

1. 105
2. 130

Below are 5 substances. Give each one its Binding affinity, relative value to the RRQRR sequence.
1. 3614 (NRRQRR) [compound 3614]
2. 3608 (MRRQRR) [compound 3608]
3. 3606 (LRRQRR) [compound 3606]
4. 3633 (RRQRRY) [compound 3633]
5. 3640 (RRQRRE) [compound 3640]

113
119
144
105
37

Below are 5 substances. Give each one its Binding affinity, relative value to the RRQRR sequence.
1. 3637 (RRQRRR) [compound 3637]
2. 3612 (TRRQRR) [compound 3612]
3. 3611 (SRRQRR) [compound 3611]
4. 3624 (RRQRRC) [compound 3624]
5. 3638 (RRQRRH) [compound 3638]

1. 192
2. 103
3. 121
4. 126
5. 158

Below are 6 substances. Give each one its Binding affinity, relative value to the RRQRR sequence.
1. 3619 (DRRQRR) [compound 3619]
2. 3631 (RRQRRS) [compound 3631]
3. 3623 (RRQRRV) [compound 3623]
4. 3625 (RRQRRP) [compound 3625]
5. 3622 (RRQRRA) [compound 3622]
6. 3605 (PRRQRR) [compound 3605]

1: 163; 2: 113; 3: 120; 4: 137; 5: 113; 6: 133

---

# measuredOn: acetylcholine receptor (Homo sapiens)
# procedureDetails: SPR binding affinity (RU) of optimized 5mer/6mer/7mer peptides, Examples 6-7
# conditionContext: 6mer-2 Top sequence; SPR; peptides tested at 10 μM
reportedEndpoint: Binding affinity (Ru)
Answers are plain numbers, in Ru.

// query Binding affinity value for entry 6mer-2-143 (RRVCRR)
128

Now the same for 6mer-2-163 (KWFYRR)
149

Now the same for 6mer-2-155 (KGVYKK)
139

Below: the item to evaluate.
// query Binding affinity value for entry 6mer-2-68 (KGRRRK)
142

---

Can you tell me Binding affinity for the items I'm about to list?
# measuredOn: acetylcholine receptor (Homo sapiens, UniProt P02708)
# procedureDetails: SPR binding affinity (RU) of optimized 5mer/6mer/7mer peptides, Examples 6-7
# conditionContext: SPR, peptides tested at 10 μM; 6mer-1 Bottom sequence (Table 11)
Answers are plain numbers, in Ru.

// query Binding affinity value for entry 6mer-1-970 (RRCCAR)
38

Now the same for 6mer-1-860 (RKHWWR)
22

Now the same for 6mer-1-973 (RRDHVK)
25

Below are 2 substances. Give each one its Binding affinity.
1. 6mer-1-918 (RRESMR)
2. 6mer-1-823 (KRHTGK)

33
12

Below are 2 substances. Give each one its Binding affinity.
1. 6mer-1-895 (KKDSKK)
2. 6mer-1-989 (KRATVR)

1. 28
2. 27

---

# measuredOn: acetylcholine receptor (Homo sapiens, UniProt P02708)
# procedureDetails: SPR binding affinity (RU) of optimized 5mer/6mer/7mer peptides, Examples 6-7
# conditionContext: SPR, peptides tested at 10 μM; 6mer-1 Top sequence
Can you tell me Binding affinity for the items I'm about to list?
Answers are plain numbers, in Ru.

Recorded Binding affinity, per entry:
Find Binding affinity (acetylcholine receptor (Homo sapiens, UniProt P02708)) for the entry 6mer-1-434 (KRWVCR)
137

Now the same for 6mer-1-590 (RKGVTK)
142

Now the same for 6mer-1-413 (RKQFCR)
148

Now the same for 6mer-1-559 (RRRLTK)
139

Below are 5 substances. Give each one its Binding affinity.
1. 6mer-1-555 (KKWYLK)
2. 6mer-1-415 (RRGVCR)
3. 6mer-1-485 (RRWYRR)
4. 6mer-1-573 (KRVLLR)
5. 6mer-1-424 (RRRIYR)

1: 128; 2: 135; 3: 126; 4: 126; 5: 135

Below are 7 substances. Give each one its Binding affinity.
1. 6mer-1-417 (RKSVCK)
2. 6mer-1-566 (KKSFCR)
3. 6mer-1-411 (RRQRSR)
4. 6mer-1-556 (KKGFTK)
5. 6mer-1-527 (KKGIYR)
6. 6mer-1-430 (KKQLQK)
7. 6mer-1-447 (RRRQQK)

[139, 148, 121, 145, 142, 144, 146]

Below are 6 substances. Give each one its Binding affinity.
1. 6mer-1-488 (KKWYSK)
2. 6mer-1-557 (KRQVQK)
3. 6mer-1-554 (KRSVTR)
4. 6mer-1-463 (KRSFRK)
5. 6mer-1-460 (RRGFYR)
6. 6mer-1-526 (KRGYTR)

1. 135
2. 128
3. 131
4. 153
5. 148
6. 148

---

# measuredOn: acetylcholine receptor (Homo sapiens, UniProt P02708)
# procedureDetails: SPR binding affinity (RU) of optimized 5mer/6mer/7mer peptides, Examples 6-7
# conditionContext: SPR, peptides tested at 10 μM; 6mer-1 Bottom sequence (Table 11)
Please note: Binding affinity exactly at 30 Ru is 0.0. Only values below 30 Ru get 1.0.

Solved entries:
Confirm or reject: Binding affinity of 6mer-1-981 (RKDDKK) lies strictly below 30 Ru
1.0

Now the same for 6mer-1-847 (KKYNHK)
1.0

---
Confirm or reject: Binding affinity of 6mer-1-962 (KKNCDK) lies strictly below 30 Ru
0.0

Now the same for 6mer-1-926 (KRESDR)
0.0

Now the same for 6mer-1-923 (RRASDR)
0.0

Now the same for 6mer-1-919 (RKDHIK)
1.0

Now the same for 6mer-1-824 (KKMNIK)
1.0

Now the same for 6mer-1-987 (RRTEFK)
0.0

Now the same for 6mer-1-801 (KKCAVK)
1.0

Now the same for 6mer-1-904 (KKDTKR)
0.0

Now the same for 6mer-1-910 (KRPTIR)
0.0

Now the same for 6mer-1-877 (KKPEWR)
1.0

Now the same for 6mer-1-852 (KRASVK)
1.0

Now the same for 6mer-1-875 (KKTNGR)
0.0

---

Can you tell me Binding affinity for the items I'm about to list?
# measuredOn: acetylcholine receptor (Homo sapiens, UniProt P02708)
# procedureDetails: SPR binding affinity (RU) of optimized 5mer/6mer/7mer peptides, Examples 6-7
# conditionContext: SPR, Resonance Units; peptides tested at 10 μM; 6mer-1 Bottom sequence (Table 11)
Numbers only, in Ru.

// query Binding affinity value for entry 6mer-1-687 (RREWIK)
23

Below are 5 substances. Give each one its Binding affinity.
1. 6mer-1-641 (RREMFK)
2. 6mer-1-770 (RKTNAR)
3. 6mer-1-756 (RKAKMK)
4. 6mer-1-753 (KKDTHK)
5. 6mer-1-771 (KKMDIK)

[21, 29, 33, 12, 17]

---

Can you tell me Binding affinity for the items I'm about to list?
# measuredOn: acetylcholine receptor (Homo sapiens)
# procedureDetails: SPR binding affinity (RU) of optimized 5mer/6mer/7mer peptides, Examples 6-7
# conditionContext: SPR, peptides at 10 μM; 6mer-2 Bottom sequence
Answers are plain numbers, in Ru.

Recorded Binding affinity, per entry:
// query Binding affinity value for entry 6mer-2-1136 (KMKKKR)
36

Now the same for 6mer-2-1013 (KPPDKR)
23

Now the same for 6mer-2-1087 (KEEMRR)
21

Below: the item to evaluate.
// query Binding affinity value for entry 6mer-2-1142 (KKAMKR)
30

---

# measuredOn: acetylcholine receptor (Homo sapiens, UniProt P02708)
# procedureDetails: SPR binding affinity (RU) of optimized 5mer/6mer/7mer peptides, Examples 6-7
# conditionContext: 6mer-2 Top sequence; SPR; peptides tested at 10 μM
Can you tell me Binding affinity for the items I'm about to list?
One number for each entry, in Ru.

// query Binding affinity value for entry 6mer-2-82 (RGVQKK)
124

Below are 7 substances. Give each one its Binding affinity.
1. 6mer-2-133 (KRRLKK)
2. 6mer-2-20 (RVQTRR)
3. 6mer-2-66 (RVIRRR)
4. 6mer-2-46 (KLYLKR)
5. 6mer-2-58 (KRLQRK)
6. 6mer-2-179 (RRVYRR)
7. 6mer-2-95 (RRIYRK)

1. 145
2. 137
3. 123
4. 153
5. 122
6. 121
7. 142

Below are 5 substances. Give each one its Binding affinity.
1. 6mer-2-70 (KRLLRK)
2. 6mer-2-54 (KGRRRR)
3. 6mer-2-202 (RLIYKK)
4. 6mer-2-181 (RWQQKK)
5. 6mer-2-194 (KLRLRK)

[126, 124, 122, 139, 154]
